System: Rattus norvegicus
METHOD_NOTES: Trough plasma concentration in DIO-F344/Jcl rat at 10 mg/kg, po
Type: ADME, organism-based
STUDY_CONDITIONS: in vivo, read-out: Cmin
ENDPOINT: concentration
Answer shape: numeric part, then the unit.

Asked: Endpoint output: concentration of Cn1c(C2CC2)nc2ccc(-n3ccc(OCc4ccc(Cl)s4)cc3=O)cc21 . Value?
Given back: 790 nM

====

METHOD_NOTES: Tmax in Sprague-Dawley rat plasma at 1 mg/kg, po administered through cassette dosing by LC/MS/MS analysis
Assay type: ADME, organism-based
ENDPOINT: Tmax (h)
State the answer as a number, implicitly in h.

Asked: Can you share its Tmax? I mean this molecule: Cn1c(C2CC2)nc2ccc(-n3ccc(OCc4ccc(Cl)s4)cc3=O)cc21
Given back: 1

Asked: For the molecule Cn1c(C2CC2)nc2ccc(-n3ccc(OCc4ccc(C(F)(F)F)s4)cc3=O)cc21 , what Tmax is on record?
Given back: 2.7

====

EXPERIMENTAL_TARGET: UniProt:P97639
Sequence (P97639 whole entry): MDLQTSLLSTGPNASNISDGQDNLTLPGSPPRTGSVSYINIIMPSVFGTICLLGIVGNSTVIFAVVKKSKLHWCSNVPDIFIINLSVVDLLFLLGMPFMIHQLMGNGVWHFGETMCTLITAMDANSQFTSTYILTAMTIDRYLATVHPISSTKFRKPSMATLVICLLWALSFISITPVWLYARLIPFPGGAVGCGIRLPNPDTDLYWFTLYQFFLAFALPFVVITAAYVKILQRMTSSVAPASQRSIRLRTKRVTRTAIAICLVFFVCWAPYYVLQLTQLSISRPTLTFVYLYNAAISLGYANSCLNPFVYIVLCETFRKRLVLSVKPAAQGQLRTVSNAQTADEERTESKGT
METHOD_NOTES: Displacement of [125I]-MCH(4-19) from rat MCHR1 expressed in CHO cell membranes after 1 hr by liquid scintillation counting
API: label(entry) gives label 1 if the entry's IC50 is strictly smaller than 100 nM; on equality or larger values it gives label 0.

Asked: Does the reported IC50 of the following compound sit strictly below 100 nM? Cn1c(C2CC2)nc2ccc(-n3ccc(OCc4ccccc4Cl)cc3=O)cc21
Given back: label 0

Asked: Below 100 nM on IC50? Entry Cn1c(C2CC2)nc2ccc(-n3ccc(OCc4cccs4)cc3=O)cc21
Given back: label 0

Asked: A record lists Cn1c(CC2CC2)nc2ccc(-n3ccc(OCc4ccc(F)cc4)cc3=O)cc21 . Is its IC50 below 100 nM?
Given back: label 0

Asked: Is the reported IC50 for Cc1nc2ccc(-n3ccc(OCc4ccc(F)cc4)cc3=O)cc2n1C strictly below 100 nM?
Given back: label 1

Asked: Is IC50 strictly under 100 nM for the entry CCCn1c(C2CC2)nc2ccc(-n3ccc(OCc4ccc(Cl)cc4)cc3=O)cc21 ?
Given back: label 0

Asked: Bench note: check whether Cn1c(C2CC2)nc2ccc(-n3ccc(OCc4cccc(Cl)c4)cc3=O)cc21 shows IC50 below 100 nM
Given back: label 1
